# study_target: UniProt Q96EB6
# Sequence (Q96EB6 1-747): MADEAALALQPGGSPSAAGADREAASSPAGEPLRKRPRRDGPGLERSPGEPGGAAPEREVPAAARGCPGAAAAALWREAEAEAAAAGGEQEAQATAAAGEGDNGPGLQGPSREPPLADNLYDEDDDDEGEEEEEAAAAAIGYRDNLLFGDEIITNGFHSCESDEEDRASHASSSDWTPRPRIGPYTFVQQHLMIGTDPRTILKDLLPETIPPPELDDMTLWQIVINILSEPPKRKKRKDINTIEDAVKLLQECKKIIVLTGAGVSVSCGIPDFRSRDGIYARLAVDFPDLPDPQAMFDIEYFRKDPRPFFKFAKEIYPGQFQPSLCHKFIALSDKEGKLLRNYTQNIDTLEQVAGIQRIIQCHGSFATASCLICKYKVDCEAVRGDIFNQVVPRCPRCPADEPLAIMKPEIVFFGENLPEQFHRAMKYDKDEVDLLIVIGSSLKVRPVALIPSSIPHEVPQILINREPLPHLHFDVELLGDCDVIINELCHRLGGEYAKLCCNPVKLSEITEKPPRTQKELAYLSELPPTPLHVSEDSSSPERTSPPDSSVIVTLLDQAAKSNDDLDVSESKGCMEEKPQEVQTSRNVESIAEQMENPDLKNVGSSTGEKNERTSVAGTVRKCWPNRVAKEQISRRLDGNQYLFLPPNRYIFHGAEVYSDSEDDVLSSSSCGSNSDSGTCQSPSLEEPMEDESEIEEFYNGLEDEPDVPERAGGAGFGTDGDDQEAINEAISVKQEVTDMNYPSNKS
# test_name: Trp mass spectrometry assay of SIRT1 activity
# Format: biochemical
# measurement_setup: Trp assay; percent maximum fold activation; read-out: Trp % Fold Act
Measured Emax by item

// query Data request, read-out Emax, for COc1nccc(NC(=O)c2cnn3ccc(-c4ccccc4OC(F)(F)F)nc23)n1
// result ≥ 350%

// query Item: Cc1ccc(C(=O)Nc2cnc3ccc(-c4ccccc4C(F)(F)F)nn23)cn1
// result < 350%

// query Item: CC1(C)CCN(c2ccc3ncc(C(=O)Nc4ccc(F)cn4)n3n2)C1
// result < 350%

---

# study_target: SIRT1 (Homo sapiens)
# test_name: TAMRA based mass spectrometry assay of SIRT1 activity
# Assay type: biochemical
# measurement_setup: concentration of test compound giving 150% activation of SIRT1; TAMRA peptide substrate
endpoint: TAMRA EC1.5 (μM)

# annotated cases, reported TAMRA EC1.5 (μM) shown
O=C(Nc1cnc2ccc(-c3ccccc3C(F)(F)F)nn12)c1cccc(N2CCOCC2)n1 ... A (EC1.5<1 μM)
Cc1cnc(NC(=O)c2cnc3ccc(-c4cccc(C(F)(F)F)c4)nn23)s1 ... B (EC1.5 1-25 μM)
O=C(Nc1ccnc(N2CCCC2)c1)c1cnc2ccc(-c3cncc(C(F)F)c3)nn12 ... B (EC1.5 1-25 μM)
O=C(Nc1ccccn1)c1cnc2ccc(-c3c(F)cccc3F)nn12 ... C (EC1.5>25 μM)
O=C(Nc1cccc(CN2CCOCC2)n1)c1cnc2ccc(-c3cc(F)cc(F)c3)nn12 ... B (EC1.5 1-25 μM)
O=C(Nc1ccnc(N2CCC2)c1)c1cnc2ccc(-c3ccccc3Cl)nn12 ... A (EC1.5<1 μM)
O=C(Nc1cnc2ccc(-c3ccccc3C(F)(F)F)nn12)c1nccs1 ... A (EC1.5<1 μM)
O=C(Nc1cnccc1N1CCOCC1)c1cnc2ccc(-c3ccccc3C(F)(F)F)nn12 ... C (EC1.5>25 μM)

// query What TAMRA EC1.5 (μM) appears in the records for this compound with SIRT1 (Homo sapiens)? O=C(Nc1cccc(CN2CCOCC2)n1)c1cnc2ccc(-c3cccc(Cl)c3F)nn12
// result A (EC1.5<1 μM)

// query Item: O=C(Nc1ccnc(OCC(O)CO)c1)c1cnc2ccc(-c3ccccc3C(F)(F)F)nn12 (centres unmarked)
// result A (EC1.5<1 μM)

// query Item: O=C(Nc1ccnc(N2CCOCC2)c1)c1nnc2ccc(-c3ccccc3C(F)F)nn12
// result B (EC1.5 1-25 μM)

// query Item: CN(C)CCn1cc(NC(=O)c2cnc3ccc(-c4ccccc4C(F)(F)F)nn23)cn1
// result B (EC1.5 1-25 μM)

// query Item: O=C(Nc1cccc(N2CCC2)n1)c1cnc2ccc(-c3ccccc3C(F)(F)F)nn12
// result A (EC1.5<1 μM)

// query Item: O=C(Nc1ccccn1)c1cnc2ccc(-c3ccc(F)c(F)c3F)nn12
// result C (EC1.5>25 μM)
